Data origin, for the record: the supplement of paper PMC7877785

self-splicing fitness (ln) listing for selected sequences.
- test_summary: self-splicing fitness, log relative to wild type (ln ratio); higher = more splicing; Tetrahymena group I intron in knt gene, E. coli kanamycin selection, DiMSum; sequences stand for … in CUCUCU…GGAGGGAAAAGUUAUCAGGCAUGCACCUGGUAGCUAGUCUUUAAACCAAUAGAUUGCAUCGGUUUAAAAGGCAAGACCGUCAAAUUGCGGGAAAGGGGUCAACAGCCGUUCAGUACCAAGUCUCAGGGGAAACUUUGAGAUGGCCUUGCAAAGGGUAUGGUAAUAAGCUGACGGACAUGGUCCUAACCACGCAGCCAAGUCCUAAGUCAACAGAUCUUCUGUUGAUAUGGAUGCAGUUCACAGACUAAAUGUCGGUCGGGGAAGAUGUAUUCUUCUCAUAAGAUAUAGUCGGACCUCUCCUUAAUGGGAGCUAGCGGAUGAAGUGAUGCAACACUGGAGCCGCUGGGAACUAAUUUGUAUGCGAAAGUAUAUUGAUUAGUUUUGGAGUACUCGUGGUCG;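 also: selection with 25 µg/mL kanamycin versus none on LB agar overnight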
- test_context: 37 °C

Lookup: Which value of self-splicing fitness (ln) has been reported for GGAGAGCAAUAUUACGAGCA in the records?
Found: -1.86

More entries:
Lookup: Need self-splicing fitness (ln), item UAGCAGCAAUAUUACGCGUC
Found: -2.87

Lookup: CCCGAGCAAUAUUACGCUUA , same question.
Found: -2.82

Lookup: Also check GCGUAGCAAUAUUACGUUAG
Found: -2.47

Lookup: And CGAUAGCAAUAUUACGGCCU ?
Found: -0.545

Lookup: Would you mind doing AUAGAGCAAUAUUACGUCCU as well?
Found: -0.577

Lookup: Another: AUGCAGCAAUAUUACGUGCC
Found: -0.869

Lookup: Also GAUUAGCAAUAUUACGAGUG , if possible.
Found: -0.616

Lookup: Please answer likewise for AUGUAGCAAUAUUACGCCAA
Found: -1.5

Lookup: Let us now turn to UAGAAGCAAUAUUACGAAAA
Found: -2.02

Lookup: Next: UACGAGCAAUAUUACGGGAU
Found: -2.74

Lookup: Consider next the sequence UUAGAGCAAUAUUACGGUAC in the same way.
Found: -2.79

Lookup: Moving on to the next sequence: UAUGAGCAAUAUUACGAUUU
Found: -1.76

Lookup: What do you have for AGGUAGCAAUAUUACGCCCG ?
Found: -0.122

Lookup: # repeat for AAUCAGCAAUAUUACGCACU
Found: 0.326

Lookup: Request: ACGUAGCAAUAUUACGGUGU
Found: -1.81

Lookup: For ACUGAGCAAUAUUACGGCAC then?
Found: -2.6

Lookup: Quick one: CUGGAGCAAUAUUACGUGGU
Found: -2.4

Lookup: What about UUAUAGCAAUAUUACGACAG ?
Found: -0.548

Lookup: Moving on to the next sequence: UUGCAGCAAUAUUACGGGUA
Found: -0.893

Lookup: Similarly, UGUUAGCAAUAUUACGGUCG ?
Found: 0.99

Lookup: What do we get for UUCUAGCAAUAUUACGCCGA ?
Found: 0.163

Lookup: Okay, and GGUGAGCAAUAUUACGGAUG ?
Found: -2.62
